Overview of reported pIC50 across a group of compounds:
Test system: Aβ40 in conditioned medium of cells stably expressing Amyloid Precursor Protein (APP)
Test: In vitro BACE cell-based assay (Aβ40 in conditioned medium, sandwich ELISA)
Conditions: Homo sapiens, HEK293, average IC50; read-out: HEK cell assay
pIC50: −log10 of the molar value.
Value kind: pIC50

smiles_repr=CC#Cc1cncc(-c2ccc3c(c2)[C@]2(COC(N)=N2)c2cc(C4CCOCC4)nc(F)c2O3)c1 value_kind=pIC50 test_value=6.16
smiles_repr=CC1(COc2cc3c(cc2F)Oc2ccc(-c4cncc(Cl)c4)cc2[C@@]32COC(N)=N2)COC1 value_kind=pIC50 test_value=7.66
smiles_repr=COc1cc(F)c2c(c1)[C@]1(COC(N)=N1)c1cc(-c3cncc(CC#N)c3)ccc1O2 value_kind=pIC50 test_value=6.49
smiles_repr=CC#Cc1cncc(-c2ccc3c(c2)[C@@]2(COC(N)=N2)c2cc(OC)cc(F)c2O3)n1 value_kind=pIC50 test_value=6.02
smiles_repr=CC1(C#Cc2cc3c(cn2)Oc2ccc(-c4ccc(F)nc4)cc2[C@@]32COC(N)=N2)COC1 value_kind=pIC50 test_value=7.34
smiles_repr=Cc1ncccc1-c1ccc2c(c1)[C@@]1(COC(N)=N1)c1cc(-c3ccnc(F)c3)ncc1O2 value_kind=pIC50 test_value=6.72
smiles_repr=CC1(C)CC(c2cc3c(c(F)n2)Oc2ccc(-c4cccnc4F)cc2[C@@]32CSC(N)=N2)=CCO1 value_kind=pIC50 test_value=8.30
